Tested on: MCF7
protocol.description: In-vitro antitumor activity against human MCF7 cells incubated for 72 hrs by CCK8 assay
Assay type: functional, cell-based
cond: MCF7, 72 h
Listing: log10 IC50 of selected compounds
readout.kind: log10 IC50 (log10 of the value in nM)

compound | readout.kind | value.reported
CN1c2ccc(F)cc2C(=O)N2CCc3c([nH]c4ccc(OC(=O)CCC(=O)Oc5ccc6[nH]c7c(c6c5)CCN5C(=O)c6cc(F)ccc6N(C)C75)cc34)C21 (stereo not given) | log10 IC50 | 2.95
CC[C@@]1(O)C(=O)OCc2c1cc1n(c2=O)Cc2cc3ccccc3nc2-1 | log10 IC50 | 1.32
CN1c2ccc(F)cc2C(=O)N2CCc3c([nH]c4ccc(O)cc34)C21 (stereo not given) | log10 IC50 | 1.64
CN1c2ccc(F)cc2C(=O)N2CCc3c([nH]c4ccc(OC(=O)CCSSCCC(=O)Oc5ccc6[nH]c7c(c6c5)CCN5C(=O)c6cc(F)ccc6N(C)C75)cc34)C21 (stereo not given) | log10 IC50 | 2.61
CN1c2ccc(F)cc2C(=O)N2CCc3c([nH]c4ccc(OC(=O)CCCC(=O)Oc5ccc6[nH]c7c(c6c5)CCN5C(=O)c6cc(F)ccc6N(C)C75)cc34)C21 (stereo not given) | log10 IC50 | 2.30
